Tested system: CA IX (Homo sapiens, UniProt Q16790)
Construct: endogenous in cells; host or cells: HT29 cells under hypoxia (1.3% O2)
Method: CAIX competitive binding assay
Study conditions: HT29 cells, 2 nM 125I-EC2674, 2 hr, 37° C., 1.3% O2, McCoy's Medium+10% FBS; read-out: IC50
Recorded endpoint: IC50 (nM)
One number for each entry, in nM.

Using the record for NS(=O)(=O)c1ccc(NC(=O)CN(CCN(CC(=O)Nc2ccc(S(N)(=O)=O)cc2)CC(=O)N[C@@H](CNC(=O)CCc2cc(I)c(O)c(I)c2)C(=O)O)CC(=O)O)cc1 [EC2674] , state its measured IC50.
852

Data provenance is patent US10857234B2.
